molecular target: autophagocytosis (luciferase uptake into isolated yeast vacuoles); assay: In vitro autophagocytosis assay (luciferase uptake into isolated vacuoles); settings: standard uptake reaction, cell-free, sample without inhibitor as 100% reference, FIG. 7; read-out: IC50 for prevention of vesicle formation (luciferase uptake)
measured-metric: IC50

Ask: Look at this molecule and give its reported IC50. Nc1nc2c(ncn2[C@@H]2O[C@H](COP(=O)(O)OP(=O)(O)OP(O)(O)=S)[C@@H](O)[C@H]2O)c(=O)[nH]1
Reply: 100 µM
